Cited source for all entries: the supplement of paper PMC10567573

B1: GMCL1 (parent)
chain: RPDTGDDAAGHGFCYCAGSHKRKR

# Variants of: B1
# Assay summary: protein stability index of a GFP-peptide fusion (GPS, HEK-293T) (PSI 1-6); higher = more stable;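 also: lentivirally expressed fusions sorted by FACS into six bins by GFP to DsRed ratio, PSI derived from sequencing read proportions per bin multiplied by bin number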
# Cond: c terminus: a fixed tail appended
Kindly supply the reported protein stability index values for the records listed here.

Which protein stability index is reported for this variant? "S19F"
2.63

// query: "G12D"
3.14

Do the same for "G12F" please
3.02

Likewise for "R24V" ?
3.38

Follow-up entry: "Y15H"
2.98

Item: "G5V"
2.99

# iterate: "C14P"
4.31

Another: "K23H"
3.1

And for "A9H" ?
2.48

// query: "D7K"
3.03

What would you report for "C16R" ?
4.59
